- Target of assay: T1, human α-CGRP 1-37 (WT) (human, C-terminal amide; N-terminal biotin when captured on the SA chip; 125I-labelled in the radioligand assay)
- T1 construct: also called α-human
- T1 peptide: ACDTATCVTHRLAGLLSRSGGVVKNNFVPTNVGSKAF
- Method description: Biacore, 37°C, Fab over CGRP on SA chip
Reported metric: Kd
Output should be the measured figure followed by the unit it is expressed in.

Past entries and their recorded results:
Binder: G1 variant M18 Fab (Fab, V domains shown, Fab; constant domains as m1) VH: EVQLVESGGGLVQPGGSLRLSCAASGFTFSNYWISWVRQAPGKGLEWVAEIRSESDASATHYAEAVKGRFTISRDNAKNSLYLQMNSLRAEDTAVYYCVGYFDYGLAIQNYWGQGTLVTVSS VL: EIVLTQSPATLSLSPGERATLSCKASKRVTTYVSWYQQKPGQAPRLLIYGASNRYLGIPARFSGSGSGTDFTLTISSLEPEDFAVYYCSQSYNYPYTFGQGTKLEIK
Kd: 0.44 nM
//
Binder: G1 variant M77 Fab (Fab, V domains shown, Fab; constant domains as m1) VH: EVQLVESGGGLVQPGGSLRLSCAASGFTFSNYWISWVRQAPGKGLEWVAEIRSKSDDSATHYAEAVKGRFTISRDNAKNSLYLQMNSLRAEDTAVYYCTVYFDYGLAIQNYWGQGTLVTVSS VL: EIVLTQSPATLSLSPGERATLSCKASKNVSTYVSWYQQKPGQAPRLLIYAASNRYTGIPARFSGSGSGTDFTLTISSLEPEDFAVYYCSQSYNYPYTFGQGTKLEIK
Kd: 2.98 nM
//
Binder: G1 variant M28 Fab (Fab, V domains shown, Fab; constant domains as m1) VH: EVQLVESGGGLVQPGGSLRLSCAASGFTFSNYWISWVRQAPGKGLEWVAEIRSRSDNSATHYAEAVKGRFTISRDNAKNSLYLQMNSLRAEDTAVYYCTVYFDYGLAIQNYWGQGTLVTVSS VL: EIVLTQSPATLSLSPGERATLSCKASKNVDTYVSWYQQKPGQAPRLLIYGASNRYLGIPARFSGSGSGTDFTLTISSLEPEDFAVYYCSQSYNYPYTFGQGTKLEIK
Kd: 0.62 nM
//
Binder: G1 variant M64 Fab (Fab, V domains shown, Fab; constant domains as m1) VH: EVQLVESGGGLVQPGGSLRLSCAASGFTFSNYWISWVRQAPGKGLEWVAEIRSKSDNVATHYAEAVKGRFTISRDNAKNSLYLQMNSLRAEDTAVYYCTVYFDYGLAIQNYWGQGTLVTVSS VL: EIVLTQSPATLSLSPGERATLSCKASKNVGTYVSWYQQKPGQAPRLLIYAASNRYLGIPARFSGSGSGTDFTLTISSLEPEDFAVYYCSQSYNYPYTFGQGTKLEIK
Kd: 8.25 nM

Now take the following binder into account.
Prompt line: Need Kd, item G1 variant M79 Fab (Fab, V domains shown, Fab; constant domains as m1) VH: EVQLVESGGGLVQPGGSLRLSCAASGFTFSNYWISWVRQAPGKGLEWVAEIRSKSDPSATHYAEAVKGRFTISRDNAKNSLYLQMNSLRAEDTAVYYCTVYFDYGLAIQNYWGQGTLVTVSS VL: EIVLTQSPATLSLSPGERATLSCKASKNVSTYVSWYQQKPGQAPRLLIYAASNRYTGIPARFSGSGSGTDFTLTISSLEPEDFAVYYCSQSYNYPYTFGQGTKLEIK
Response line: 8.06 nM
